This collection of values is drawn from patent US8901305B2.

- Tested system: GST-Xa-hAAK1 (Homo sapiens, UniProt Q2M2I8)
- Construct: made in house
- Sequence (Q2M2I8 whole entry): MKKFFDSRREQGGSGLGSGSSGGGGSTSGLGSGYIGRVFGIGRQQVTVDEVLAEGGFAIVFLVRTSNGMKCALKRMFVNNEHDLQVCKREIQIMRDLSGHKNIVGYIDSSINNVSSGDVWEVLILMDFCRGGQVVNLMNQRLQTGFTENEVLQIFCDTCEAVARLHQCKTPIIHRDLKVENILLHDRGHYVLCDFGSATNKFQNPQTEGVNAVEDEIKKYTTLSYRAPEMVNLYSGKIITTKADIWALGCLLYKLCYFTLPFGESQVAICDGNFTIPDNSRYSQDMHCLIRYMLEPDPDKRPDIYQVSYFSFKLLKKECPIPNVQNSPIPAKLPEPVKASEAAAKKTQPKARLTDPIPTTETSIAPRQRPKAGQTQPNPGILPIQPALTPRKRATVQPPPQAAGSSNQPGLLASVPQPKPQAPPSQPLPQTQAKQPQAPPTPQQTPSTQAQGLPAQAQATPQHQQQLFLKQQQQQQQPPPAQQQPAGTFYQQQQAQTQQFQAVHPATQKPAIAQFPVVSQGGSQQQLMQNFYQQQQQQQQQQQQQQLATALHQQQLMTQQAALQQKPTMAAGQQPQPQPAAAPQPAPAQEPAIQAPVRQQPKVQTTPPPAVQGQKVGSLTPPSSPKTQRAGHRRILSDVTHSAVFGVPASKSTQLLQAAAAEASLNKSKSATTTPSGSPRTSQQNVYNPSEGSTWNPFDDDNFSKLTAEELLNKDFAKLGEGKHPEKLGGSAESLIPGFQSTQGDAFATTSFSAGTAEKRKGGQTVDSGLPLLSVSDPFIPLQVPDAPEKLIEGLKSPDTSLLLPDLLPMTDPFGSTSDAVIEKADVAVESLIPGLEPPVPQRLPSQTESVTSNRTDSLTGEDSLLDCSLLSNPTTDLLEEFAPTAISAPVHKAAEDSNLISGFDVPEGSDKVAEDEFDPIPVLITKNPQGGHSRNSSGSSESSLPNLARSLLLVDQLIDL
- Assay text: AAK1 kinase assay
- Assay type: biochemical
- Conditions: ATP 22 μM, 3 hours at room temperature
Rule: IC50 below 10 nM gives criterion met. Equal to or above 10 nM gives criterion not met.

Example entries and their recorded answers appear below.
> print(dat)
                                   molecule        class.label
1  Cc1nccc2c1c(=O)n(C)c1c(Cl)c(OC[C@@H](N)CC(C)C)ccc21  criterion not met
2  Cc1nccc2c1c(=O)n(C)c1cc(OCC(C)(N)CC(C)C)c(Cl)cc21 (stereo not drawn)      criterion met
3  Cc1cc2c3ccnc(C)c3c(=O)n(C)c2cc1OC[C@@H](N)CC1CC1      criterion met

(Q) Strictly below 10 nM in IC50? Cc1cc2c(cn1)c(=O)n(C)c1cc(OC[C@@H](N)CC(C)C)ccc21
(A) criterion not met

(Q) Below 10 nM on IC50? Entry CCc1cc2c3ccnc(C)c3c(=O)n(C)c2cc1OC[C@@H](N)CC(C)C
(A) criterion met

(Q) Field: below-cutoff. Rule: recorded IC50 strictly less than 10 nM. Subject: CC(C)CC(C)(N)COc1ccc2c3ccncc3c(=O)n(C)c2c1 (stereo not drawn) [Example 28]
(A) criterion met

(Q) Is it true that IC50 reported for Cc1nccc2c1c(=O)n(C)c1cc(OC[C@H](N)CC(C)C)c(C#N)cc21 is less than 10 nM?
(A) criterion met
